Where do the numbers come from? From ChEMBL document CHEMBL2218924.

# system.under.test: Serine/threonine-protein kinase ULK3 (Homo sapiens)
# study.conditions: at 1 µM
measurement.kind: residual activity (%)
# number only, unit % dropped from output

compound: O=C1NC(=O)c2c1c1c3ccccc3n3c1c1c2c2ccccc2n1C1CCC3O1
system.under.test: Serine/threonine-protein kinase ULK3 (Homo sapiens)
observed: 58

compound: COc1ccc2c(c1)/C(=C/c1cnc[nH]1)C(=O)N2
system.under.test: Serine/threonine-protein kinase ULK3 (Homo sapiens)
observed: 80

I have this compound here, CC(C)(C)c1cc(C=C(C#N)C#N)cc(Br)c1O , and I need its recorded residual activity.
110

I have this compound here, O=[N+]([O-])/C=C/c1ccc2c(c1)OCO2 , and I need its recorded residual activity.
111

I have this compound here, C[S+]([O-])c1ccc(-c2nc(-c3ccc(F)cc3)c(-c3ccncc3)[nH]2)cc1 (configuration not stated) , and I need its recorded residual activity.
104

I have this compound here, COc1cc2ncnc(Nc3ccc(OCc4ccccc4)cc3)c2cc1OC , and I need its recorded residual activity.
104

I have this compound here, COC(=O)[C@@]1(O)C[C@H]2O[C@]1(C)n1c3ccccc3c3c4c(c5c6ccccc6n2c5c31)C(=O)NC4 , and I need its recorded residual activity.
0
